# assay_name: circular dichroism
# test_context: water; pH ns; 25 °C; 70 uM
*1 amine or outer side, *2 acyl side, *3 side chain or, on linkers, in order; H or OH if unused. Where a SMILES comes first, the peptide text is derived from it. Bridges are numbered along the chain shown (N, C = ends). [ ]: non-standard residue; d: D form. X1 = O=C(CSCCCCCCSCC(=O)[*:2])[*:1]; Dap = NC[C@H](N)C(=O)O
outcome_measure: helicity (%)

INSERT INTO measurements (compound, readout_number) VALUES
  ('CC[C@H](C)[C@@H]1NC(=O)[C@@H](NC(=O)[C@H](CCC(=O)O)NC(=O)[C@@H]2CCCN2C(=O)[C@H](CC(N)=O)NC(=O)[C@H](CCC(=O)O)NC(C)=O)CNC(=O)CSCCCCCCSCC(=O)NC[C@@H](C(=O)N[C@@H](Cc2c[nH]cn2)C(=O)N[C@H](C(=O)N[C@@H](CCC(N)=O)C(=O)N[C@@H](CCCNC(=N)N)C(=O)N[C@H](C(=O)N[C@@H](CCSC)C(N)=O)C(C)C)C(C)C)NC(=O)[C@H](CC(=O)O)NC(=O)[C@H](CC(C)C)NC1=O (Ac-ENPE[Dap]ILD[Dap]HVQRVM-NH2; linker 5-9 via X1)', 29);

Source: paper PMC8763920
